Attribute: protein stability index
B1: RPAIN (parent)
chain: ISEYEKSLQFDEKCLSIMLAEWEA

Variants of: B1
assayMethodText: protein stability index of a GFP-peptide fusion (GPS, HEK-293T) (PSI 1-6); higher = more stable;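 note: lentivirally expressed fusions sorted by FACS into six bins by GFP to DsRed ratio, PSI derived from sequencing read proportions per bin multiplied by bin number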
experimentalSetup: c terminus: a fixed tail appended
Field format: numeric only.

Sample records with protein stability index:
I17E | 2.16
L19Y | 2.88
L19M | 2.12
Y4E | 2.13
E12P | 1.76
I17S | 2.08
E23A | 3.07
I1F | 1.34

For the next question, use this variant.
(Q) Fill in: protein stability index of K6C is ___
(A) 2.67

These measurements were taken from the supplement of paper PMC10567573.
